Entry source: patent US20120010173A1

Here, each record is paired with measured solubility at 24 h data.
experiment: Solubility of fosfluconazole derivatives in pharmaceutical solvents (Table 2); type: physicochemical; conditions: water (pH 2), aqueous buffer, thermodynamic from solid; H2O (pH = 2), 25° C.

[
  {
    "Compound": "CCCCCCCCCOP(=O)([O-])OC(Cn1cncn1)(Cn1cncn1)c1ccc(F)cc1F.[Na+] [Example 14]",
    "solubility at 24 h": "> 10000 µg/mL"
  },
  {
    "Compound": "CCCCCCCCCC(=O)OCCOP(=O)([O-])OC(Cn1cncn1)(Cn1cncn1)c1ccc(F)cc1F.[Na+] [Example 2]",
    "solubility at 24 h": "6900 µg/mL"
  },
  {
    "Compound": "CCOP(=O)(O[C@H]1CC[C@@]2(C)C(=CC[C@H]3[C@@H]4CC[C@H]([C@H](C)CCCC(C)C)[C@@]4(C)CC[C@@H]32)C1)OC(Cn1cncn1)(Cn1cncn1)c1ccc(F)cc1F (stereo partly drawn) [Example 5]",
    "solubility at 24 h": "< 1 µg/mL"
  }
]

###

experiment: Chemical stability in pharmaceutical solvents (weight % remaining in solution, LCMS); format: physicochemical; conditions: H2O (pH = 7), 1 day
Outcome Measure: weight percentage that remained in solution (% w/w)

[
  {
    "Compound": "CCCCCCCCCC(=O)OCC(COP(=O)([O-])OC(Cn1cncn1)(Cn1cncn1)c1ccc(F)cc1F)OC(=O)CCCCCCCCC.[Na+] (centres unmarked)",
    "Measurement Units": "% w/w",
    "Val": 95.3
  },
  {
    "Compound": "CCCCCCCCCOP(=O)([O-])OC(Cn1cncn1)(Cn1cncn1)c1ccc(F)cc1F.[Na+]",
    "Measurement Units": "% w/w",
    "Val": 99.3
  },
  {
    "Compound": "C[N+](C)(C)CCOP(=O)([O-])OC(Cn1cncn1)(Cn1cncn1)c1ccc(F)cc1F",
    "Measurement Units": "% w/w",
    "Val": 99.6
  },
  {
    "Compound": "CCCCCCCCCOCCOP(=O)([O-])OC(Cn1cncn1)(Cn1cncn1)c1ccc(F)cc1F.[Na+]",
    "Measurement Units": "% w/w",
    "Val": 94.7
  },
  {
    "Compound": "CCCCCCCCCC(=O)OCCOP(=O)([O-])OC(Cn1cncn1)(Cn1cncn1)c1ccc(F)cc1F.[Na+]",
    "Measurement Units": "% w/w",
    "Val": 97.7
  }
]

###

assay: Solubility of fosfluconazole derivatives in pharmaceutical solvents (Table 2); assay type: physicochemical; conditions: organic solvent or mixture, thermodynamic from solid; PEG 400, 25° C.
Outcome Measure: solubility at 24 h

[
  {
    "Molecule": "CCCCCCCCCC(=O)OCCOP(=O)([O-])OC(Cn1cncn1)(Cn1cncn1)c1ccc(F)cc1F.[Na+]",
    "Val": "> 10000 µg/mL"
  },
  {
    "Molecule": "CCOP(=O)(O[C@H]1CC[C@@]2(C)C(=CC[C@H]3[C@@H]4CC[C@H]([C@H](C)CCCC(C)C)[C@@]4(C)CC[C@@H]32)C1)OC(Cn1cncn1)(Cn1cncn1)c1ccc(F)cc1F (stereo partly drawn)",
    "Val": "4100 µg/mL"
  },
  {
    "Molecule": "CCCCCCCCCOCCOP(=O)([O-])OC(Cn1cncn1)(Cn1cncn1)c1ccc(F)cc1F.[Na+]",
    "Val": "> 10000 µg/mL"
  },
  {
    "Molecule": "C[N+](C)(C)CCOP(=O)([O-])OC(Cn1cncn1)(Cn1cncn1)c1ccc(F)cc1F",
    "Val": "> 10000 µg/mL"
  },
  {
    "Molecule": "CCCCCCCCCC(=O)OCC(COP(=O)([O-])OC(Cn1cncn1)(Cn1cncn1)c1ccc(F)cc1F)OC(=O)CCCCCCCCC.[Na+] (stereo not drawn)",
    "Val": "9000 µg/mL"
  },
  {
    "Molecule": "CCCCCCCCCOP(=O)([O-])OC(Cn1cncn1)(Cn1cncn1)c1ccc(F)cc1F.[Na+]",
    "Val": "> 10000 µg/mL"
  }
]
